assayComment: Nrf2 qHTS screen for inhibitors; also: nearly all actives have a fitted effect of over 60% in size
conditionInfo: A549 ARE-Fluc reporter, luciferase luminescence, 18-24 h; series mostly up to 46 µM
Among all 360,000 compounds or so, about 7,500 (2.1%) were called active. Another 20% or so got no clear call; they are omitted. Calls follow the shape of the dose curve; as a rule, active = well fitted inhibition curve with a large enough effect; inconclusive = small, poorly fitted or top-dose-only effect, or effect the other way; inactive = flat fitted curve, though single readings scatter. Many of the other results were omitted from the sample, so actives are more common in it than they were.
Classes to choose from: TRUE (active), FALSE (inactive)

Recorded results for 4 compounds are shown here.
COc1cccc(-c2nc(CS(=O)(=O)CC(=O)N3CCN(c4cc(C)ccc4C)CC3)c(C)o2)c1    TRUE
CCCCN(CC)CCCNC(=O)CS(=O)(=O)Cc1nc(-c2cccc(OC)c2)oc1C    FALSE
Cc1cccc(CC2(O)C(=O)Nc3ccccc32)n1 (stereo not given)    FALSE
CCCc1cc(=O)[nH]c(SCC(=O)Nc2ccc(C(=O)Nc3ccccc3OC)cc2)n1    FALSE

Now look at this entry.
Query block: Tell me the assay call for CCOc1ccc(NC(=O)c2c(NC(=O)Cc3ccccc3)sc3c2CCCCC3)cc1 please.
Result block: FALSE

###

assayComment: Nrf2 qHTS screen for inhibitors; also: nearly all actives have a fitted effect of over 60% in size
conditionInfo: A549 ARE-Fluc reporter, luciferase luminescence, 18-24 h; series mostly up to 46 µM
Hit rate of the full screen: of about 360,000 compounds, about 7,500 (2.1%) were called active. About 20% were inconclusive and are not listed. The call rests on the fitted dose curve; in most records, active means well fitted inhibition curve with a large enough effect; inconclusive means small, poorly fitted or top-dose-only effect, or effect the other way; inactive means flat fitted curve, though single readings scatter. The full list was thinned out, with actives kept by preference.
Pick from active, inactive when you respond.

C=CC[C@@H](CC(=O)N[C@H](CO)Cc1ccccc1)C(=O)N[C@@H](COC(=O)[C@@H](CC=C)Cc1ccc(F)cc1)Cc1c[nH]c2ccccc12    inactive
COc1ccc(-c2nc(CN3CCC(C(=O)NCCN(CC(C)C)CC(C)C)CC3)c(C)o2)cc1OC    inactive
CCCCCCn1nnc2sc(-c3ccccc3)cc2c1=O    inactive

Query block: Please share the test call associated with CCC(=O)Nc1c(S(=O)(=O)c2ccccc2)c2nc3ccccc3nc2n1Cc1ccccc1 .
Result block: active

###

In this section we review reported activity change, negative = inhibition values for a set of molecules.
assayComment: Nrf2 qHTS screen for inhibitors; also: nearly all actives have a fitted effect of over 60% in size; as to activity change, negative = inhibition: % is scaled to controls: 0 for no effect and ±100 for the full control effect
conditionInfo: A549 ARE-Fluc reporter, luciferase luminescence, 18-24 h; series mostly up to 46 µM
Hit rate of the full screen: of about 360,000 compounds, about 7,500 (2.1%) were called active. Roughly 20% stayed inconclusive and do not appear here. Shown is part of a subset that was picked to be rich in actives.

Example results:
COc1ccccc1-c1cc(C(F)(F)F)nc(S(=O)(=O)CCCC(=O)Nc2ccc(F)cc2F)n1    10.4% [at 9.27 µM] (inactive)
O=c1c2ccccc2n(Cc2cccc(Cl)c2)c(=O)n1Cc1ccccc1    -5.53% [at 9.27 µM] (inactive)
CCN1CCN(c2cc(C)c3cc(NC(=O)c4cc(Cl)ccc4OC)ccc3n2)CC1    12% [at 9.27 µM] (inactive)
Cc1ccc(Nc2c(-c3ccc(C)cc3)nc3cnccn23)cc1    -2.28% [at 9.27 µM] (inactive)
Cc1ccc(-c2nc3ccccn3c2Nc2c(C)cccc2C)o1    3.18% [at 9.27 µM] (inactive)
Cn1c(=O)c(C(=O)O)nn(-c2ccccc2)c1=O    7.58% [at 9.27 µM] (inactive)
Cc1cc(Br)ccc1NC(=O)Cn1cnc2sc(C)c(S(=O)(=O)N3CCN(C)CC3)c2c1=O    4.06% [at 9.27 µM] (inactive)
Cc1ccc(C(=O)NCCSc2c(C)[nH]c3ccccc23)cc1C    -4.57% [at 9.27 µM] (inactive)
COc1cccc(N2CCN(S(=O)(=O)c3cc(Br)cc4c3N(C(=O)C3CC3)CC4)CC2)c1    -6.76% [at 9.27 µM] (inactive)
CCCCCn1c(CCNC(=O)c2ccc(F)cc2)nc2ccccc21    6.85% [at 9.27 µM] (inactive)

Noted for COc1ccccc1NC(=O)c1sc2nc(C)c(C(=O)Nc3ccc(Cl)cc3)c(-c3ccc(Br)cc3)c2c1N : its activity change, negative = inhibition reads 6.36% [at 9.27 µM] (inactive)

Record COc1ccc(CCNc2nc(-c3ccc(F)cc3)cc(C(F)(F)F)n2)cc1OC , field activity change, negative = inhibition: 8.32% [at 9.27 µM] (inactive)

# activity change, negative = inhibition of COc1cc(Cl)ccc1Nc1ncc(C(=O)N2CCN(c3ccccc3OC)CC2)c2ccccc12 = 1.91% [at 9.27 µM] (inactive)

Reported activity change, negative = inhibition of Cc1nc2nc(SCC(=O)N(Cc3ccccc3)C(C)C)nn2c(C)c1Cc1ccccc1Cl : 8.79% [at 9.27 µM] (inactive)

For COc1ccccc1CNS(=O)(=O)c1cc(Br)cc2c1N(C(C)=O)C(C)C2 (stereo unspecified) the molecule record lists activity change, negative = inhibition as 1.68% [at 9.27 µM] (inactive)

Reported activity change, negative = inhibition ( CCC(=O)N1CCc2cc(Br)cc(S(=O)(=O)CCC(=O)NCCc3ccc(OC)c(OC)c3)c21 ) = 5.45% [at 9.27 µM] (inactive)

###

assayComment: Nrf2 qHTS screen for inhibitors; also: nearly all actives have a fitted effect of over 60% in size
conditionInfo: A549 ARE-Fluc reporter, luciferase luminescence, 18-24 h; series mostly up to 46 µM
Hit rate of the full screen: of about 360,000 compounds, about 7,500 (2.1%) were called active. Another 20% or so got no clear call; they are omitted. Calls come from the whole dose curve; as a rule, active = well fitted inhibition curve with a large enough effect; inconclusive = small, poorly fitted or top-dose-only effect, or effect the other way; inactive = flat fitted curve, though single readings scatter. The sample holds actives, similar compounds and a random draw of the others, so the mix is not that of the screen.
Pick from T = active, F = inactive when you respond.

See these solved cases before continuing.
NC(=O)c1c(NC(=O)CSc2nc(N)cc(=O)[nH]2)sc2c1CCCC2    F
COc1ccc(CC(=O)NC(C)CCc2ccccc2)cc1 (configuration not stated)    F
COc1ccc(N2CCN(C(=O)CCSCc3ccccc3F)CC2)cc1    F
COc1ccc(CNC(=O)CSCc2nc(-c3ccccc3F)oc2C)cc1    F
CCCn1c(NCc2ccc(N(CC)CC)cc2)nc2ccccc21    F

Query block: Assay outcome for CC(C)(C)OC(=O)C[C@@H]1C/C=C\C[C@@H](CC(=O)N(CCO)Cc2ccccc2)C(=O)N[C@H](Cc2ccccc2)COC1=O : what was it?
Result block: F

Query block: What is the recorded call for this compound in the test? CCCNC(=O)C(CC)n1nc(CC)n2c(cc3oc(C)cc32)c1=O (configuration not stated)
Result block: F

Query block: Tell me the recorded outcome of this test for Cc1ccc(-n2ncc3c2CCCC3NC(=O)c2cnccn2)cc1C (configuration not stated) .
Result block: T

Query block: What call does the record list for Cn1nccc1C(=O)NC1CCCc2c1cnn2-c1ccc(F)cc1F (configuration not stated) ?
Result block: T

Query block: Per the records of this test, what outcome belongs to COC(=O)c1c(NC(=O)CCCC(=O)O)sc2c1CCCCC2 ?
Result block: T

Query block: Returns: the outcome recorded for COC(=O)c1c(NC(=O)CCN2CCOCC2)sc2c1CCCC2 in this assay.
Result block: F

###

assayComment: Nrf2 qHTS screen for inhibitors; also: nearly all actives have a fitted effect of over 60% in size
conditionInfo: A549 ARE-Fluc reporter, luciferase luminescence, 18-24 h; series mostly up to 46 µM
The campaign covered roughly 360,000 compounds. About 7,500 (2.1%) were called active. Not shown: some 20% with an inconclusive outcome. Calls follow the shape of the dose curve; as a rule, active = well fitted inhibition curve with a large enough effect; inconclusive = small, poorly fitted or top-dose-only effect, or effect the other way; inactive = flat fitted curve, though single readings scatter. The sample as a whole holds a higher share of actives than the screen did.
Respond using exactly one of the listed classes: active, inactive

Worked examples, 6 molecules total:
CCNC(=O)N1c2ccccc2Sc2ccccc21    inactive
Cc1sc2ncn(CC(=O)N3CCN(c4ccc(F)cc4)CC3)c(=O)c2c1S(=O)(=O)N1CCN(c2ncccn2)CC1    inactive
CCOC(=O)C1CCN(c2ncnc3c2c(-c2ccccc2)cn3-c2ccc(C)cc2)CC1    inactive
O=C(C(c1ccccc1)c1ccccc1)N1CCN(CC(O)COc2ccccc2)CC1 (configuration not stated)    inactive
Cc1cccc(-n2c(SCC(N)=O)nc3c(oc4ccccc43)c2=O)c1    inactive
CCC(=O)N1CCc2cc(S(=O)(=O)NC(C(=O)Nc3ccc(C(C)=O)cc3)C(C)C)ccc21 (configuration not stated)    inactive

Query block: What classification did CCc1ccc(OCCCn2c(CCCNC(=O)C3CCCCC3)nc3ccccc32)cc1 end up with in this test?
Result block: inactive

###

assayComment: Nrf2 qHTS screen for inhibitors; also: nearly all actives have a fitted effect of over 60% in size
conditionInfo: A549 ARE-Fluc reporter, luciferase luminescence, 18-24 h; series mostly up to 46 µM
The campaign covered roughly 360,000 compounds. About 7,500 (2.1%) were called active. Roughly 20% stayed inconclusive and do not appear here. Calls come from the whole dose curve; as a rule, active = well fitted inhibition curve with a large enough effect; inconclusive = small, poorly fitted or top-dose-only effect, or effect the other way; inactive = flat fitted curve, though single readings scatter. The entries come from a sample that favours actives as a whole.
Please answer using one outcome listed in 1.0 (active), 0.0 (inactive)

Cc1ccc(-c2nn(CCC(=O)Nc3ccc(Cl)c(Cl)c3)c(=O)c3ccccc23)cc1    0.0

Query block: What outcome does the record of this test show for CSc1ccc(CN2C(=O)NC3(CCCCCC3)C2=O)cc1 ?
Result block: 1.0

Query block: Per the records of this test, what outcome belongs to O=C(CN1C(=O)NC2(CCCCCCC2)C1=O)NCc1ccc(F)cc1 ?
Result block: 0.0

Query block: Per the records of this test, what outcome belongs to O=C(CN1C(=O)NC2(CCCCCC2)C1=O)NCc1ccc(F)cc1 ?
Result block: 0.0

Query block: For this compound, state the assay outcome: CCCCNC(=O)c1ccc2c(c1)NC(=O)C(C(C)C)N2 (stereo not given)
Result block: 0.0

Query block: Just curious, what result did COc1ccc(C(=O)COC(=O)CN2C(=O)C3CC=CCC3C2=O)c(OC)c1 (stereo not given) get here?
Result block: 0.0

Query block: Could you please tell me the result logged for CN(CCc1ccccc1)C(=O)c1cccc(NC(=O)Cc2cccc(NC(=O)C3CCCN(C(=O)CCc4ccccc4)C3)c2)c1 (stereo not given) in this assay?
Result block: 1.0

Query block: Please share the test call associated with CC(C)Cn1c(N)c(C(=O)COC(=O)CN2C(=O)C3CC=CCC3C2=O)c(=O)n(C)c1=O (stereo not given) .
Result block: 1.0

Query block: GET /call?item= O=C(NCc1ccccc1)c1cccc(NC(=O)C2CCCCC2)c1 returns the recorded outcome of this test.
Result block: 0.0

Query block: What outcome does the record of this test show for CC(C)Cn1c(N)c(C(=O)COC(=O)C2CCCN2C(=O)c2cccs2)c(=O)n(C)c1=O (stereo not given) ?
Result block: 0.0
